Biological target: SIK2 (Homo sapiens, UniProt Q9H0K1)
Sequence (Q9H0K1 whole entry, species assumed): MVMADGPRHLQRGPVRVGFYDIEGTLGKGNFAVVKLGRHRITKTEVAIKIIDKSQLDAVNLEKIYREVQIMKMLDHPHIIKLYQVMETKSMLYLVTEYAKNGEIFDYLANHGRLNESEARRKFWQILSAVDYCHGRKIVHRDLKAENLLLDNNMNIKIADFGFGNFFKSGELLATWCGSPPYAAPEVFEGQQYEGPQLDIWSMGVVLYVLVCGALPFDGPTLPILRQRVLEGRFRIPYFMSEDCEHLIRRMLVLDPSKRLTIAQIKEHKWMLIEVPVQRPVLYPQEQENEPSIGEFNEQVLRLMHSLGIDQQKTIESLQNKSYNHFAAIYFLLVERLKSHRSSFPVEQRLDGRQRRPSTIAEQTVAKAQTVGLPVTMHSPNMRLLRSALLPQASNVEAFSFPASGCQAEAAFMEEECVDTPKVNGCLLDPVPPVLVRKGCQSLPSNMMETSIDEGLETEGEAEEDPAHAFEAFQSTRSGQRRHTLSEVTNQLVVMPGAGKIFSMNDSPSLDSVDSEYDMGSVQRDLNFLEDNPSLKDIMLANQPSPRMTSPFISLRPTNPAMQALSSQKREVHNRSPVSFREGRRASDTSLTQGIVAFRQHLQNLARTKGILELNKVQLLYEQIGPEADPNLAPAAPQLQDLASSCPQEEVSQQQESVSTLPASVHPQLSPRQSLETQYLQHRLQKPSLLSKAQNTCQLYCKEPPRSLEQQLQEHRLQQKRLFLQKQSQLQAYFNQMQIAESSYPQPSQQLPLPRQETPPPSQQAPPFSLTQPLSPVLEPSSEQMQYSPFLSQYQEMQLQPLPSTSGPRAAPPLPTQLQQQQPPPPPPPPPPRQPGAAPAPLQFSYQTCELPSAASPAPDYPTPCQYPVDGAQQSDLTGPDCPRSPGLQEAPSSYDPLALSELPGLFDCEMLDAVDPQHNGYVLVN
Assay: SIK2 Enzymatic Assay High Version 2 (High ATP)
Format: biochemical
measurementType: IC50

Input line: Please look up its IC50: Cc1cnc(Nc2cc3cc(-c4cc(C)ncc4O[C@H]4C[C@H]5COC[C@@H](C4)N5)ccn3n2)nc1
Output line: < 0.847 nM

----------
Target: SIK2 (Homo sapiens, UniProt Q9H0K1)
Experiment: SIK2 Enzymatic Assay High Version 2 (High ATP)
Format: biochemical
// reported IC50 for each item listed
Please reply with the bare figure in nM and do not write the unit itself.

compound | units | IC50
Cc1cc(-c2ccn3nc(Nc4ccc(C5CC5)nn4)cc3c2)c(O[C@@H]2[C@@H]3CO[C@H]2CN3)cn1 [Example 525] | nM | 59.4

Input line: Please look up its IC50: Cc1cc(-c2ccn3nc(Nc4cccc(C(F)(F)F)n4)cc3c2)c(O[C@H]2C[C@H]3COC[C@@H](C2)N3)cn1 [Example 366]
Output line: 1.56

----------
// reported pIC50 for each item listed
Target: SIK2 (Homo sapiens)
Test: SIK2 Enzymatic Assay High Version 2 (High ATP)
Type: biochemical
// returns pIC50 (minus log10 of molar concentration), number only

Input line: Please look up its pIC50: CN1[C@@H]2CC[C@H]1C[C@H](COc1cnc(C#N)cc1-c1ccn3nc(NC(=O)C4CC4)cc3c1)C2
Output line: 7.01

Input line: Please look up its pIC50: N#Cc1cc(-c2ccn3nc(NC(=O)C4CC4)cc3c2)c(OCc2ccccn2)cn1
Output line: 6.93

Input line: Please look up its pIC50: Cc1cc(-c2ccn3nc(NC(=O)C4CC4)cc3c2)c(O[C@H]2CCN(C)C2)cn1
Output line: 7.14

Input line: Please look up its pIC50: Cc1cc(-c2ccn3nc(NC(=O)C4CC4)cc3c2)c(OC[C@H]2N(C)CC2(C)C)cn1
Output line: 7.74

Input line: Please look up its pIC50: Cc1cc(-c2ccn3nc(Nc4ccn(C)n4)cc3c2)c(O[C@H]2CC[C@@H](O)CC2)cn1
Output line: 7.85

Input line: Please look up its pIC50: Cc1cc(-c2ccn3nc(NC(=O)C4CC4)cc3c2)c(O[C@H]2CC[C@@H](O)C2)cn1 (single isomer, unassigned)
Output line: 7.28

Input line: Please look up its pIC50: Cc1cc(-c2ccn3nc(NC(=O)C4CC4)cc3c2)c(O[C@@H]2CC[C@@H](O)C2)cn1 (stereo in doubt)
Output line: 7.14

Input line: Please look up its pIC50: Cc1cc(-c2ccn3nc(Nc4cc(C(F)(F)F)nn4C)cc3c2)c(O[C@H]2C[C@H]3COC[C@@H](C2)N3C)cn1
Output line: 6.97

Input line: Please look up its pIC50: CCOC(=O)CN[C@H]1C[C@@H](COc2cnc(C#N)cc2-c2ccn3nc(NC(=O)C4CC4)cc3c2)C1
Output line: 7.27

Input line: Please look up its pIC50: CNC(=O)c1ccnc(Nc2cc3cc(-c4cc(C)ncc4O[C@H]4C[C@H]5COC[C@@H](C4)N5S(=O)(=O)C4CC4)ccn3n2)c1
Output line: 8.71

Input line: Please look up its pIC50: Cc1cc(-c2ccn3nc(NC(=O)C4(F)CC4)cc3c2)c(OC[C@H]2CCN2C)cn1
Output line: 8.19

Input line: Please look up its pIC50: Cc1cc(-c2ccn3nc(NC(=O)C4CC4)cc3c2)c(OCC2NCC23CCOCC3)cn1 (racemic)
Output line: 7.58

Input line: Please look up its pIC50: CN1CCO[C@H](COc2cnc(C#N)cc2-c2ccn3nc(NC(=O)C4CC4)cc3c2)C1
Output line: 7.44

----------
Molecular target: UniProt:Q9H0K1
Test: SIK2 Enzymatic Assay Version 1 (ADP Glo)
Assay type: biochemical
measurementType: IC50 (nM)
Please reply with the bare figure in nM and do not write the unit itself.

Input line: Please look up its IC50: N#Cc1cc(-c2ccn3nc(NC(=O)C4CC4)cc3c2)c(OCc2ccccc2)cn1 [Example 753]
Output line: 2.98

----------
Target: SIK2 (Homo sapiens, UniProt Q9H0K1)
Test: SIK2 Enzymatic Assay High Version 2 (High ATP)
Type: biochemical
measurementType: IC50

The cases that follow already have their IC50 on record.
molecule | IC50
Cc1cc(-c2ccn3nc(Nc4cc(C)nc(C)n4)cc3c2)c(OCC2CNS(=O)(=O)N2)cn1 (racemic) [Example 352] | 3.1 nM
Cc1cc(-c2ccn3nc(NC(=O)C4CC4)cc3c2)c(OC[C@@H]2CCN2CCF)cn1 [Example 573] | 74 nM
COc1cnccc1-c1ccn2nc(NC(=O)C3CC3)cc2c1 [Example 749] | 821 nM

From here, focus on the item given below.
Input line: Tell me reported IC50 for Cc1cnc(Nc2cc3cc(-c4cc(C)ncc4O[C@H]4C[C@H]5COC[C@@H](C4)N5C)ccn3n2)cn1 [Example 416] , tested with SIK2 (Homo sapiens, UniProt Q9H0K1).
Output line: < 0.847 nM

----------
// reported log10 IC50 for each item listed
Target: SIK2 (Homo sapiens, UniProt Q9H0K1)
Assay: SIK2 Enzymatic Assay Version 1 (ADP Glo)
Type: biochemical
Settings: enzyme 0.6 nM, 160 μM ATP and 140 μM HDAC5tide (each 2× final concentration); 30 minutes pre-incubation, 4 hours; ADPGlo luminescence; read-out: SIK2 ADP Glo IC50 (μM) (Test Example 1)
All values: base-10 log of IC50 in µM.

The cases that follow already have their log10 IC50 on record.
molecule | targetSystem | numericReadout
N#Cc1cc(-c2ccn3nc(NC(=O)C4CC4)cc3c2)c(O[C@@H]2CCNC2)cn1 | SIK2 (Homo sapiens, UniProt Q9H0K1) | -3.20
CN1CCC[C@@H](COc2cnc(C#N)cc2-c2ccn3nc(NC(=O)C4CC4)cc3c2)C1 | SIK2 (Homo sapiens, UniProt Q9H0K1) | -2.14
CN1CC[C@@H](COc2cnc(C#N)cc2-c2ccn3nc(Nc4cccnc4)cc3c2)C1 | SIK2 (Homo sapiens, UniProt Q9H0K1) | -2.41
Cc1cc(-c2ccn3nc(Nc4ccn(C)n4)cc3c2)c(OC[C@@H]2CNCCO2)cn1 | SIK2 (Homo sapiens, UniProt Q9H0K1) | -3.18
CO[C@H]1C[C@H](Oc2cnc(C)cc2-c2ccn3nc(NC(=O)C4CC4)cc3c2)C1 | SIK2 (Homo sapiens, UniProt Q9H0K1) | -1.45

Input line: Please look up its log10 IC50: CN1CCC(Oc2cnc(C#N)cc2-c2ccn3nc(NC(=O)C4CC4)cc3c2)(C(F)(F)F)CC1
Output line: -0.69

Input line: Please look up its log10 IC50: N#Cc1cc(-c2ccn3nc(NC(=O)C4CC4)cc3c2)c(OC[C@H](O)C(F)(F)F)cn1
Output line: -2.22

Input line: Please look up its log10 IC50: N#Cc1cc(-c2ccn3nc(NC(=O)C4CC4)cc3c2)c(OC[C@@H]2CCN(CC(F)(F)F)C2)cn1
Output line: -2.47

Input line: Please look up its log10 IC50: Cc1cc(-c2ccn3nc(NC(=O)C4CC4)cc3c2)c(OCC2(N)CCCC2)cn1
Output line: -2.97

Input line: Please look up its log10 IC50: N#Cc1cc(-c2ccn3nc(NC(=O)C4CC4)cc3c2)c(OCC2(N)CCC2)cn1
Output line: -2.91

Input line: Please look up its log10 IC50: CCOC(=O)CN[C@H]1C[C@@H](COc2cnc(C#N)cc2-c2ccn3nc(NC(=O)C4CC4)cc3c2)C1
Output line: -2.39

Input line: Please look up its log10 IC50: Cc1cc(-c2ccn3nc(NC(=O)C4CC4)cc3c2)c(OC[C@@H](N)C(C)(C)C)cn1
Output line: -1.91

Input line: Please look up its log10 IC50: CC(C)(O)COc1cnc(C#N)cc1-c1ccn2nc(NC(=O)C3CC3)cc2c1
Output line: -2.69

Input line: Please look up its log10 IC50: O=C(Nc1cc2cc(-c3cc(OC(F)F)ncc3OC[C@@H]3CNCCO3)ccn2n1)C1CC1
Output line: -2.42

Input line: Please look up its log10 IC50: N#Cc1cc(-c2ccn3nc(NC(=O)C4CC4)cc3c2)c(O[C@H]2CCN(CC(F)(F)F)C2)cn1
Output line: -3.42

----------
Molecular target: SIK2 (Homo sapiens, UniProt Q9H0K1)
Test: SIK2 Enzymatic Assay High Version 2 (High ATP)
Format: biochemical
measurementType: IC50 (nM)
Please reply with the bare figure in nM and do not write the unit itself.

The cases that follow already have their IC50 on record.
molecule | targetSystem | IC50, nM
N#Cc1cc(-c2ccn3nc(NC(=O)C4CC4)cc3c2)c(OC[C@@H]2CNCCO2)cn1 [Example 19] | SIK2 (Homo sapiens, UniProt Q9H0K1) | 8.38
Cc1cc(-c2ccn3nc(NC(=O)C4CC4)cc3c2)c(OC[C@@H]2CCN2C)cn1 [Example 512] | SIK2 (Homo sapiens, UniProt Q9H0K1) | 34.7
Cc1cc(-c2ccn3nc(Nc4cc(C)nc(C)n4)cc3c2)c(OC[C@@H]2COC(=O)N2)cn1 [Example 342] | SIK2 (Homo sapiens, UniProt Q9H0K1) | 32
CN1CCC(Oc2cnc(C#N)cc2-c2ccn3nc(NC(=O)C4CC4)cc3c2)C1 (single isomer, unassigned) [Example 59] | SIK2 (Homo sapiens, UniProt Q9H0K1) | 111

Input line: Please look up its IC50: N#Cc1cc(-c2ccn3nc(NC(=O)C4CC4)cc3c2)c(O[C@@H]2C[C@@H]3C[C@H]2CN3)cn1 (single isomer, unassigned) [Example 17]
Output line: 4.17
